target: superoxide dismutase (SOD) (Homo sapiens, UniProt P00441); test: biochemical; settings: Anti SOD IC50
Sequence (P00441 whole entry): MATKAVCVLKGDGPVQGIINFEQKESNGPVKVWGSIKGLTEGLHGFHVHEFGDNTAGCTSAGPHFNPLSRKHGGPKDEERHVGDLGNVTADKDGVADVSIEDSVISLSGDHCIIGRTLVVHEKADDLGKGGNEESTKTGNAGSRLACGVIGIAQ
pIC50: −log10 of the molar value.
QUANTITY MEASURED: pIC50

Below, each entry is followed by its recorded pIC50 result.
| MOLECULE | pIC50 |
| --- | --- |
| O=c1cc(-c2ccccc2)oc2cc(O)c(O)c(O)c12 [Molecule M7, 5,6,7-trihydroxyflavone] | 4.44 |
| O=c1cc(-c2ccccc2)oc2cc(O)cc(O)c12 [Molecule M1, 5,7-dihydroxyflavone] | < 4.00 |

Then this molecule:
Query: pIC50; subject: O=c1cc(-c2ccccc2)oc2cccc(O)c12 [Molecule M4, 5-hydroxyflavone]
< 4.00

* * *

Biological target: α-amylase (Homo sapiens, UniProt P04746)
Sequence (P04746 16-511): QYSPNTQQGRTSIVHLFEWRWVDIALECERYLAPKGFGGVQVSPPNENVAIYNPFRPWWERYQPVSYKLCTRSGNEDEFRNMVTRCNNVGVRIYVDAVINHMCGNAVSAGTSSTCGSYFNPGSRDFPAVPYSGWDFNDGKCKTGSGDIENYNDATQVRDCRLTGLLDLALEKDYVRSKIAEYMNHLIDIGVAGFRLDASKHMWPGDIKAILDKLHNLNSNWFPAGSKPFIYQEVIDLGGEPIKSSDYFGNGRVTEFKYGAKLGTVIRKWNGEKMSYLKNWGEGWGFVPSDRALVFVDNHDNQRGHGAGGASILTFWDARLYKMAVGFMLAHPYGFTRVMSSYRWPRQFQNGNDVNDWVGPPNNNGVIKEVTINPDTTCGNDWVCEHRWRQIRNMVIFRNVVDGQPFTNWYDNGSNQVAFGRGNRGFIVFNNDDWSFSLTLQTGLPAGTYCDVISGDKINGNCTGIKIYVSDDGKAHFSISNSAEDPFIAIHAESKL
Experiment: Anti-α-amylase activity (starch/DNS)
Settings: at 100 µM
Collected Anti α-Amylase % values appear next to each entry.
The reply should contain only the number, in %.

Use these answered entries as a reference point.
| MOLECULE | OBSERVED MEASUREMENT |
| --- | --- |
| Cc1cccc(COc2cc(O)c3c(=O)cc(-c4ccccc4)oc3c2)c1 [Molecule M15] | 46.2 |
| O=c1cc(-c2cccc(O)c2)oc2ccc3ccccc3c12 [Molecule M9, 3′-hydroxy-b-naphthoflavone] | 86.6 |
| O=c1cc(-c2cc(O)cc(O)c2)oc2ccccc12 [Molecule M8, 3′,5′-dihydroxyflavone] | 104.8 |

Query molecule follows.
Field request: Anti α-Amylase % | item: O=c1cc(-c2cccc(O)c2)oc2c1ccc1ccccc12 [Molecule M10, 3′-hydroxy-a-naphthoflavone]
69.4

* * *

target: acetylcholinesterase (AChE) (Homo sapiens, UniProt P22303); type: biochemical; details: at 100 µM
Sequence (P22303 32-614, species assumed): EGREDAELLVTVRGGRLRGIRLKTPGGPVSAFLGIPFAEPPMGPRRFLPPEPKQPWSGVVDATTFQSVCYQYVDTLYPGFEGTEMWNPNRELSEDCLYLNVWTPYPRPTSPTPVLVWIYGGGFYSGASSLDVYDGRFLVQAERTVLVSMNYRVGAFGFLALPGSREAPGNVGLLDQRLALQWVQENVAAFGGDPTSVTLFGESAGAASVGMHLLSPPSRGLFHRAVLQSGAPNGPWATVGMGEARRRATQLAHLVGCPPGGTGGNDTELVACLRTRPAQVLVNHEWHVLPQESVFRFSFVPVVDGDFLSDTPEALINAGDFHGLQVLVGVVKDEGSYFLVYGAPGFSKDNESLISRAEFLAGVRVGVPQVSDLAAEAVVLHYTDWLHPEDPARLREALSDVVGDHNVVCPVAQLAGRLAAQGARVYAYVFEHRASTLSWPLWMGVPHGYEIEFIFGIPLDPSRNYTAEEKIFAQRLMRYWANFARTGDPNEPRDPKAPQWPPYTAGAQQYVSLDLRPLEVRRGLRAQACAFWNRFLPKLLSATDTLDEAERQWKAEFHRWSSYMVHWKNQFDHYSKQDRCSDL
QUANTITY MEASURED: Anti ACHE % (%)
All answers are understood in %, so give the number only.

These recorded examples may help you get a feel for the data.
| MOLECULE | MEASURED TARGET | Anti ACHE % [%] |
| --- | --- | --- |
| COc1ccc(-c2oc3c(CC=C(C)C)c(O[C@@H]4O[C@H](CO)[C@@H](O)[C@H](O)[C@H]4O)cc(O)c3c(=O)c2O[C@@H]2O[C@@H](C)[C@H](O)[C@@H](O)[C@H]2O)cc1 | acetylcholinesterase (AChE) (Homo sapiens, UniProt P22303) | 19.3 |
| Cc1ccc(-c2cc(=O)c3cc(O)ccc3o2)cc1 [Molecule M17, 6-hydroxy-4′-methylflavone] | acetylcholinesterase (AChE) (Homo sapiens, UniProt P22303) | 50.8 |

Lookup: Anti ACHE % / acetylcholinesterase (AChE) (Homo sapiens, UniProt P22303) / O=c1cc(-c2cc(O)cc(O)c2)oc2ccccc12 [Molecule M8, 3′,5′-dihydroxyflavone]
49.3
